B1: PhoQ; a variant is named by its letters at X, in order, P23837 (parent)
chain: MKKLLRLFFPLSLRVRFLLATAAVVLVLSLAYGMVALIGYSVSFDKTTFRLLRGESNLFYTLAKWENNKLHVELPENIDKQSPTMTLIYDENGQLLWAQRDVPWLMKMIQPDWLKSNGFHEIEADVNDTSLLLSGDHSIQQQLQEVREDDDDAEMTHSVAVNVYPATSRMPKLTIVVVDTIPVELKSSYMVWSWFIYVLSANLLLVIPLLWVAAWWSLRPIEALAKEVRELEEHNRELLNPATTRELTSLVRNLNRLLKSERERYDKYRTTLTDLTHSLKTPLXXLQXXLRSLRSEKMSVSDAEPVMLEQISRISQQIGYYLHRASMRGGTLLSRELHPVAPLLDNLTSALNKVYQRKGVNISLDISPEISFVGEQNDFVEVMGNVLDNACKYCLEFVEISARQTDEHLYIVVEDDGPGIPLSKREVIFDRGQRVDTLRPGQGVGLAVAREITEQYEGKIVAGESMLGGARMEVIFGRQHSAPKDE

Variants of: B1
procedure-details: enrichment ratio after two sorts for PhoP signalling (ratio (wild type AVST 3.29)); higher = more functional
stated-conditions: with PhoP (E. coli)
Whole data set: some 140,000 sequences, median “enrichment ratio after two sorts for PhoP signalling” near 0, cut for the highest 2% near 11. For the sample, the highest values were picked, then their nearest neighbours and some sequences at random.
observable: enrichment ratio

Consider the following illustrative entries.
>>> value("FSNY")
"≤ 0.25"
>>> value("SKMP")
"≤ 0.25"
>>> value("GNLL")
15.3
>>> value("WILL")
"≤ 0.25"
>>> value("GILL")
18.2

Please list enrichment ratio recorded for the variant `WFHM`
≤ 0.25

Please list enrichment ratio recorded for the variant `QTTM`
≤ 0.25

Please list enrichment ratio recorded for the variant `KCLL`
≤ 0.25
